Biological target: T1, hTsr2 (ITC) (human, UniProt Q969E8 1-191)
T1 construct: human Tsr2; probably made like the NMR constructs; also called WT hTsr2; human Tsr2; source: E. coli BL21
T1 sequence (looked up): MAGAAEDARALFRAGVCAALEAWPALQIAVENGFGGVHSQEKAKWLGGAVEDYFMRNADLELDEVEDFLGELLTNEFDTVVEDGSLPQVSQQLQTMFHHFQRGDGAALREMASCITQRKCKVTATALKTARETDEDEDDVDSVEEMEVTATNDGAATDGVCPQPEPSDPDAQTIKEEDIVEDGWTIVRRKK
Experiment: ITC; VP-ITC; 20–40 µM Tsr2 variant in the cell, 400–800 µM ESS2 peptide in the syringe; 25 °C, 20 mM NaPi pH 7.1, 1 mM DTT, 10 µM EDTA
Settings: both partners purified
QUANTITY_KIND: Kd

Ask: Dear colleague, I am looking for the recorded Kd of the following binder: RFRPAGAAPRPPPKPM (Human limits are not printed. They are taken by ungapped alignment to the yeast ESS2 construct in PDB 6G04 (eS26 residues 100-119; the text defines ESS2 as 99-119), running to the human C-terminus. …) [human ESS2 peptide]
Result: 2000 nM
